// data source = ChEMBL document CHEMBL5058564

- Test system: Fibroblast
- Assay comment: Incucyte cell viability with human fibroblast; note: unitless GR value; below 1 slowed growth and below 0 cell loss
- Type: toxicity, cell-based
- Run conditions: 6 h, 10 µM, compound concentration 10 uM, replicate number 2, timepoint 6 hours
Label satisfied when Growth Rate is at or above 0.2; anything below gets not satisfied.

O=c1c2cccn2c2ccccc2n1CCCN1CCC(c2ccc(Cl)cc2)CC1    not satisfied

Could you verify whether the entry N[C@@]1(C(=O)O)CO[C@H]2[C@H](C(=O)O)[C@H]21 [LY-379268] shows Growth Rate of no less than 0.2? not satisfied

Decide: Growth Rate of Cc1[nH]cnc1CN1CCc2c(c3ccccc3n2C)C1=O [ALOSETRON] >= 0.2? satisfied

----------
- Tested on: HEK-293T
- Assay comment: Incucyte cell viability with HEK293T; note: unitless GR value; below 1 slowed growth and below 0 cell loss
- Type: toxicity, cell-based
- Run conditions: human, 12 h, 10 µM, compound concentration 10 uM, replicate number 2, timepoint 12 hours
Assay readout: Growth Rate
Returns: the value as a bare number; no unit string appended.

# count of solved cases: 4
CC#C[C@@H](CC(=O)O)c1ccc(OCc2cccc(-c3ccc(C(F)(F)F)cc3)c2)cc1    0.95
Cc1cc(C)cc(C(=O)NOCCCCCC(=O)NO)c1    0.67
NC(=O)c1cccc(-c2cc(Nc3ccc(OC(F)(F)F)cc3)ncn2)c1    0.25
CCCCC[C@H](O)/C=C/[C@H]1[C@H](O)CC(=O)[C@@H]1CCCCCCC(=O)O [ALPROSTADIL]    1

Check the records and state Growth Rate for "O=C(NCCO)c1cccc(-c2cc(Nc3ccc(OC(F)(F)F)cc3)ncn2)c1" -0.13

----------
- System: Fibroblast
- Assay comment: Incucyte cell viability with human fibroblast; note: unitless GR value; below 1 slowed growth and below 0 cell loss
- Type: toxicity, cell-based
- Run conditions: 12 h, 10 µM, compound concentration 10 uM, replicate number 2, timepoint 12 hours
A collection of molecules and their measured Growth Rate
Simply state the number, no unit and no words.

CCCN[C@H]1CCc2nc(N)sc2C1.Cl.Cl    0.7
CC(C)c1noc(N2CCC(COc3ccc(-c4ccc(S(C)(=O)=O)cc4)nc3)CC2)n1    0.41
CCc1nn2c(C)cc(C)nc2c1Cc1ccc(-c2nnc(C3CCNCC3)o2)cc1    0.37

Give the reported value of Growth Rate for this record: "CC(C)(C)c1ccc(-c2coc3ccc(-c4cn[nH]c4)nc23)cc1" 0

Given "CO[C@H]1CNC[C@@H](OCC2CCC(F)(F)CC2)[C@@H]1Nc1ncc(-c2cncc(C)c2)c2cc(C)c(=O)[nH]c12" , respond with its Growth Rate. 0.53

Kindly indicate its recorded Growth Rate. Item: "N[C@](CC1c2ccccc2Oc2ccccc21)(C(=O)O)[C@H]1C[C@@H]1C(=O)O" 0.93

Provide measured Growth Rate value, entry: "CC[C@H]1CN2CCc3cc(OC)c(OC)cc3[C@@H]2C[C@@H]1C[C@H]1NCCc2cc(OC)c(OC)cc21" -0.61

Look up and state reported Growth Rate for Cl.NCCc1c[nH]c2ccc(O)cc12 [SEROTONIN HYDROCHLORIDE] 1

Consider the molecule "COc1cc(/C=C/C(=O)NCCn2c(C)cc3ccccc32)cc(OC)c1OC" and give its recorded Growth Rate. 0.39

Report Growth Rate for "C[C@@H](OC[C@@]1(c2ccccc2)CC[C@]2(CCC(=O)N2)CN1)c1cc(C(F)(F)F)cc(C(F)(F)F)c1" 0.68

Identify the reported Growth Rate for the following entry. C[C@@H](O[C@H]1OCCN(Cc2n[nH]c(=O)[nH]2)[C@H]1c1ccc(F)cc1)c1cc(C(F)(F)F)cc(C(F)(F)F)c1 [APREPITANT] -0.12

Let me know recorded Growth Rate for "CN(C)C(=O)Cn1cc(-c2ccc(-c3cncc4ccccc34)cc2)cn1" , thanks. 1

----------
- Tested on: U2OS
- Assay comment: Incucyte cell viability with U2OS; note: unitless GR value; below 1 slowed growth and below 0 cell loss
- Format: toxicity, cell-based
- Run conditions: human, 24 h, 10 µM, compound concentration 10 uM, replicate number 1, timepoint 24 hours
Assay readout: Growth Rate
Provide a numeric answer; units are not to be included.

As a guide, the following entries are already answered.
O=C(O)c1n[nH]c2c1C[C@H]1C[C@@H]21    0.99
CN[C@@H](C)C(=O)N[C@H]1CCCC[C@H]2CC[C@@H](C(=O)N[C@@H](c3ccccc3)c3cn(CCCCc4ccc(CCCCn5cc([C@@H](NC(=O)[C@@H]6CC[C@@H]7CCCC[C@H](NC(=O)[C@H](C)NC)C(=O)N76)c6ccccc6)nn5)cc4)nn3)N2C1=O    1

// moving on: another record for Growth Rate
Quote U2OS Growth Rate for entry "CC(C)(O)C(=O)N1CCN(c2ccc(C(F)(F)F)c(C3=C(c4c[nH]c5ccccc45)C(=O)NC3=O)c2)CC1" . 0.67

----------
- Tested on: Fibroblast
- Assay comment: Incucyte cell viability with human fibroblast; note: unitless GR value; below 1 slowed growth and below 0 cell loss
- Format: toxicity, cell-based
- Run conditions: 0 h, 10 µM, compound concentration 10 uM, replicate number 2, timepoint 0 hours
# reported Growth Rate; entries follow
The answer should be a number; do not append a unit.

Worked cases, Growth Rate given:
COc1cc(N2CCN(C)CC2)ccc1Nc1nccc(-c2cn(C)c3cnccc23)n1    -0.24
C[C@@H](OC[C@@]1(c2ccccc2)CC[C@]2(CCC(=O)N2)CN1)c1cc(C(F)(F)F)cc(C(F)(F)F)c1 [ROLAPITANT]    0.28

Look up and report measured Growth Rate (Fibroblast) for the following molecule: "CN1CCN(c2cc(-c3ccccc3)nc(N)n2)CC1" 0.38

----------
- System: U2OS
- Assay comment: Incucyte cell viability with U2OS; note: unitless GR value; below 1 slowed growth and below 0 cell loss
- Assay type: toxicity, cell-based
- Run conditions: human, 12 h, 10 µM, compound concentration 10 uM, replicate number 2, timepoint 12 hours
Assay readout: Growth Rate

CC(=O)NCC(=O)N1[C@@H]2CC[C@H]1c1ccc(Nc3ncc(C(F)(F)F)c(NC4CCC4)n3)cc12    0.56
Cc1ccccc1C(=O)Nc1ccc(C(=O)N2CCCC(N(C)C)c3ccccc32)cc1.Cl (stereo not given)    -0.22
COc1ncc2cc(C(=O)Nc3cc(C(=O)NCc4cccc(Cl)c4)ccc3Cl)c(=O)[nH]c2n1    0.69
CCN1C(=CC(C)=O)Sc2ccc(OC)cc21    0.88
Cc1cc(C)cc(C(=O)NOCCCCCC(=O)NO)c1    0.5
CC(C)(C)c1ccc(-c2coc3ccc(-c4cn[nH]c4)nc23)cc1    0.79

Find the measured Growth Rate of C[C@@H]1CN(Cc2ccc(F)cc2)CCN1C(=O)COc1ccc(Cl)cc1NC(N)=O [BX 471 FREE BASE] and report it. 0.91

Give Growth Rate for "Cn1cc(C(=O)OCC2CCN(CCNS(C)(=O)=O)CC2)c2ccccc21" 0.95

Look up and state reported Growth Rate for "O=C(O)c1n[nH]c2c1C[C@H]1C[C@@H]21" 0.86

State, in one line, measured Growth Rate of "CCN1/C(=C/C(C)=O)Sc2ccc(OC(C)=O)cc21" 0.89

Determine from records and report Growth Rate for "CNCCN1CCC(c2cc(CN(C)C(=O)c3cccc(Oc4ccccc4)c3)ccn2)CC1" 0.99

Return the recorded Growth Rate value; entry: CSc1ccccc1N1CCN(CCCCCC(=O)NC2CCCc3ccccc32)CC1.Cl (stereo not given) 0.96

Report Growth Rate for "NC[C@H](O)c1ccc(O)c(O)c1.O.O=C(O)C(O)C(O)C(=O)O" 0.93

----------
- System: U2OS
- Assay comment: Incucyte cell viability with U2OS; note: unitless GR value; below 1 slowed growth and below 0 cell loss
- Format: toxicity, cell-based
- Run conditions: human, 6 h, 10 µM, compound concentration 10 uM, replicate number 1, timepoint 6 hours
Assign met whenever Growth Rate does not fall below 0.4; assign not met whenever it does.

Would you please look over these solved cases?
CCc1cc2c(cc1-c1cccc(S(=O)(=O)F)c1)C(C)(C)c1[nH]c3cc(C#N)ccc3c1C2=O    not met
O=C1c2c(Br)c(Br)c(Br)c(Br)c2C(=O)N1c1ncc[nH]1    met
O=C(NCc1ccc(F)cc1)N1CCN2C(=O)OC(c3ccccc3)(c3ccccc3)C2C1 (configuration not stated)    not met

Reported Growth Rate reaches at least 0.4 for "COc1ccccc1N1CCN(C[C@@H](C(=O)NC(C)(C)C)c2ccccc2)CC1.Cl.Cl" ? not met

Would you say "CN(C)CCn1cc(S(=O)(=O)c2cccc(F)c2)c2cccnc21.Cl.Cl" shows Growth Rate at minimum 0.4? met

Kindly determine if Growth Rate recorded for "N[C@@]1(C(=O)O)CC[C@H]2[C@H](C(=O)O)[C@H]21" is above or exactly 0.4. met

Given the entry CS(=O)(=O)N1CCCC(NC(=O)[C@H](CCC2CCCCC2)NC(=O)c2ccc(CNc3ncnc4c3nnn4-c3ccccc3)cc2)C1 (some centres not stated) , answer whether its Growth Rate meets or surpasses 0.4. met

----------
- Test system: Fibroblast
- Assay comment: Incucyte cell viability with human fibroblast; note: unitless GR value; below 1 slowed growth and below 0 cell loss
- Format: toxicity, cell-based
- Run conditions: 6 h, 10 µM, compound concentration 10 uM, replicate number 1, timepoint 6 hours
Assay readout: Growth Rate

Solved cases below.
Cc1ccc(C(C)(O)c2nc3ccccc3s2)c(C)c1 (stereo not drawn)    0.67
CO[C@H]1CNC[C@@H](OCC2CCC(F)(F)CC2)[C@@H]1Nc1ncc(-c2cncc(C)c2)c2cc(C)c(=O)[nH]c12    0.63
CC(F)(F)CN1CCOc2c(nn(-c3ccccc3Cl)c2-c2ccc(Cl)cc2)C1=O    -0.37

Please look at "N[C@@H](CCP(=O)(O)O)C(=O)O" and tell me its recorded Growth Rate on Fibroblast. -0.06

System Fibroblast. Read-out Growth Rate. Item "CCc1cc2c(cc1-c1cccc(S(=O)(=O)F)c1)C(C)(C)c1[nH]c3cc(C#N)ccc3c1C2=O" . Report value. 0.03

State, for Fibroblast, measured Growth Rate of the compound listed here: "O=C(Nc1cc(C(F)(F)F)ccc1N1CCCCC1)c1ccncc1" -0.18

Give Growth Rate; test system Fibroblast; compound "OCCCNc1cc(-c2ccnc(Nc3cccc(Cl)c3)n2)ccn1" -0.19

Print Fibroblast Growth Rate for "CC(C)COc1ccc(CNC(=O)N(Cc2ccc(F)cc2)C2CCN(C)CC2)cc1" . 0.97

Give Growth Rate; test system Fibroblast; compound "COc1ncc2cc(C(=O)Nc3cc(C(=O)NCc4cccc(Cl)c4)ccc3Cl)c(=O)[nH]c2n1" -0.08

Report value only: Growth Rate, Fibroblast, "Cc1ccc(-c2ccc(F)cc2COc2ccc(CCC(=O)O)cc2)cc1" 0.23

Enter recorded Growth Rate with Fibroblast for "O=c1c2cccn2c2ccccc2n1CCCN1CCC(c2ccc(Cl)cc2)CC1" here. -0.55

Name the recorded Growth Rate of "Cc1noc(C)c1-c1cnc2c(-c3ccc(C(=O)O)cc3)cn([C@@H](C)c3ccccn3)c2c1" , assay system Fibroblast. 0.13

Send back Fibroblast Growth Rate of "C[C@]1(O)CC[C@H]2[C@@H]3CCC4=CC(=O)CCC4=C3C=C[C@@]21C" only. 0.66

# return Growth Rate of "Cc1c(Cc2ccc3ccccc3n2)c2cc(F)ccc2n1CC(=O)O" (system: Fibroblast) 0.6

Report value only: Growth Rate, Fibroblast, "CCCCCCCCCCCCCCC[C@@H](O)[C@@H](N)COP(=O)(O)O" -0.14
